- tested-target: human ether-à-go-go-related gene (hERG) potassium channel (human, UniProt Q12809);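 also: peak tail current of the secondary pulse compared with the same well before compound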
- Sequence (Q12809 whole entry, looked up): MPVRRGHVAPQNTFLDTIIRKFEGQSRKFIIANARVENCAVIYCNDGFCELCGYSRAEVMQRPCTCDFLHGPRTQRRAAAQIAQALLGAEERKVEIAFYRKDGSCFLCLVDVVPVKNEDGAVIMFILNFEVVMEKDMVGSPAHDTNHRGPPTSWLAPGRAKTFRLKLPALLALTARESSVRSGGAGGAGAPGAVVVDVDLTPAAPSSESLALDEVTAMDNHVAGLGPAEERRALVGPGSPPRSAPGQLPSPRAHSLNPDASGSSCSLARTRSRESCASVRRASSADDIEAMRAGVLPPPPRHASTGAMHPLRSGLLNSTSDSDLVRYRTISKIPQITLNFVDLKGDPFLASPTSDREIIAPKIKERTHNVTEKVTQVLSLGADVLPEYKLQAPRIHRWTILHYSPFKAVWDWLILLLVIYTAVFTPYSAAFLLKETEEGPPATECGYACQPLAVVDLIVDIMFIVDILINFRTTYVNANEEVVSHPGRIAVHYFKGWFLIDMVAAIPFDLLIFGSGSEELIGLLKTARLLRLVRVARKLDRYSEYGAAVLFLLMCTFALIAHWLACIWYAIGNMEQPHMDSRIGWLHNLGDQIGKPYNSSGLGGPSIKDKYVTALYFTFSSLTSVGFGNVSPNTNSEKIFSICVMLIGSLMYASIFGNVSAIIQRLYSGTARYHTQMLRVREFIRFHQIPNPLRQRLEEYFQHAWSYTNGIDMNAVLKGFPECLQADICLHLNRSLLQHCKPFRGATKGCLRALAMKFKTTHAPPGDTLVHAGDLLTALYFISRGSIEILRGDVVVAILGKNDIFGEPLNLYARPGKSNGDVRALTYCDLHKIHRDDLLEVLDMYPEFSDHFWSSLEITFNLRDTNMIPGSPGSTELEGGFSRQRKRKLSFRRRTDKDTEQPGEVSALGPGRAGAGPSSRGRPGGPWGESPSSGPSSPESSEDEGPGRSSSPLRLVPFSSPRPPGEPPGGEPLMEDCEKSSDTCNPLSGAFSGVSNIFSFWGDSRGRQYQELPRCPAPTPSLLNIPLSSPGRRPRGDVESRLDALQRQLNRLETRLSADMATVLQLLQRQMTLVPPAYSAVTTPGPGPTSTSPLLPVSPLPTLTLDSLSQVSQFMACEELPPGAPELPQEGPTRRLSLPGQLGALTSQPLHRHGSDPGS
- experiment-description: primary screen, population patch clamp on CHO cells stably expressing hERG; higher = less effect of the substance
About 14,000 (4.5%) of roughly 310,000 compounds showed an effect of 50% or more. The effect is printed as a negative number. Shown is part of a subset that was picked to be rich in strong results.
observation-type: hERG current change (%, negative = inhibition) at 10uM
Provide a numeric answer, followed by its unit.

compound	reported-value
CCOC(=O)C1(Cc2ccccc2)CCN(Cc2ccon2)CC1	0.71%
O=C(O)Cn1nnc2ccccc21	-3.4%
O=C(NC1CCCCCC1)c1cccnc1Sc1ccccc1	-15.4%

Report hERG current change (%, negative = inhibition) at 10uM for each item below.
1. Cc1ccccc1NC(=O)Cn1nnc2ccccc21
2. C/C(Cn1nnc2ccccc21)=N/OC(=O)c1c(F)cccc1F
3. COc1ccc(S(=O)(=O)NC2CCCC2)cc1C(N)=O
4. CN(C)S(=O)(=O)c1ccc(Cl)c(NC(=O)COC(=O)C2CCCO2)c1 (stereo not drawn)
5. CC(=O)Nc1ccc2nc(CN3CCN(CC(C)C)C(CCO)C3)ccc2c1 (stereo not drawn)
6. O=C(N/N=C/c1ccccn1)c1cccc(NC(=O)c2ccccc2Cl)c1
7. Cc1oc2c(c1C(=O)NCc1cccnc1)C(=O)c1ccccc1C2=O

Result string:
-12%
12.5%
4.15%
5.01%
17%
-4.9%
-47%

// for each compound in input: emit hERG current change (%, negative = inhibition) at 10uM
1. O=C(COC(=O)c1cccc(F)c1)NC1CC1
2. CC(=O)Nc1ccc2nc(CN3CCC(CO)(CCc4ccccc4)CC3)ccc2c1
3. COc1ccc(OC)c(S(=O)(=O)N2CCCC(C(=O)NCCN3CCOCC3)C2)c1 (stereo not drawn)

Result string:
1: 41.8%; 2: -68.2%; 3: 21.2%

Hi there! I need hERG current change (%, negative = inhibition) at 10uM for each item below, if you can.
1. CCn1c(Cc2ccccc2)nnc1SCC(=O)OC(C)C
2. O=C(NCC1CCCO1)c1ccc2c(=O)n(CC3CCCO3)c(=S)[nH]c2c1 (stereo not drawn)

Result string:
["0.117%", "6.52%"]
